// values below are reported absorbance 490 nm/630 nm
# experimental-target: T1, Ala mutant having 3-amino acid substitution, SEQ ID NO: 48 (human)
# T1 sequence (peptide): EENMDDQWMQDEAAAGY
# run-description: ELISA, peptide on plate (10 ug/mL)
Form entry: value (OD) — number only.

Input: Recorded absorbance 490 nm/630 nm of E9 (antibody, IgG1, V domains shown) VH: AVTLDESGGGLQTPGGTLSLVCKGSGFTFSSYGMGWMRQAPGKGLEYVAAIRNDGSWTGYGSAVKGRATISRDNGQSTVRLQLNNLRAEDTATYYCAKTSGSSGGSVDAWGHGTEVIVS VL: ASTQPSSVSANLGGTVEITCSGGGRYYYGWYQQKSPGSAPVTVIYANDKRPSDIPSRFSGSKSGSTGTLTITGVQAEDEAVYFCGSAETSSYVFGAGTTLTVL , please.
Output: 1.81

Input: Recorded absorbance 490 nm/630 nm of A11 (antibody, IgG1, V domains shown) VH: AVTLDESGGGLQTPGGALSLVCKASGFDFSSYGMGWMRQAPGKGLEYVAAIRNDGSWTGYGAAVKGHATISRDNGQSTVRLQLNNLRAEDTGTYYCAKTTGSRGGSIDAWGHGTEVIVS VL: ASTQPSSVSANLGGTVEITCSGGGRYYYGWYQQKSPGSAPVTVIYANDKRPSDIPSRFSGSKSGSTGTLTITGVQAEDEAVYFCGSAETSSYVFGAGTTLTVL , please.
Output: 1.87
